// provenance: the supplement of paper PMC10567573

Quick list: protein stability index per entry.
B1: CASP6 (parent)
chain: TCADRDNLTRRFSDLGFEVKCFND

Variants of: B1
experiment-summary: protein stability index of a GFP-peptide fusion (GPS, HEK-293T) (PSI 1-6); higher = more stable;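 note: lentivirally expressed fusions sorted by FACS into six bins by GFP to DsRed ratio, PSI derived from sequencing read proportions per bin multiplied by bin number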
condition-summary: c terminus: a fixed tail appended

- sequence-text: "TCADRDNLTRRFSDLGPEVKCFND [F17P]"
  protein stability index: 4.04

Lab note: TCADRDNLTRRFADLGFEVKCFND [S13A] gave protein stability index of 3.46

protein stability index reading for TCADRDVLTRRFSDLGFEVKCFND [N7V] : 3.04

The recorded protein stability index for entry TCACRDNLTRRFSDLGFEVKCFND [D4C] equals 1.58

Item: TCADRDNLTRRFSDLLFEVKCFND [G16L] | protein stability index: 1.89

Please fill in: protein stability index reported for TCADRDNLTRRFSDLGFEVKCFNN [D24N] = 2.97
